// provenance: PubChem BioAssay AID2060907

- System: 388556-164-R-J1-PDC complex spheroid viability;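 further: spheroids exposed to compound for 7 days before readout; 100% = DMSO vehicle control luminescence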
- Assay info: Anticancer human tumor 388556-164-R-J1-PDC patient-derived colon adenocarcinoma cell line growth inhibition [RAS]
- Protocol conditions: second compound 1 µM; first compound 0.0316 µM; active compounds read low
Readout label: viability, T/C

// known answers, use as guide
CC(C)NCC(C(=O)N1CCN(c2ncnc3c2C(C)CC3O)CC1)c1ccc(Cl)cc1 (centres undefined) + C=CC(=O)N1CCN(c2nc(OCC3CCCN3C)nc3c(F)c(-c4nc(N)cc(C)c4C(F)(F)F)c(Cl)cc23)C(C)C1	106%
CC1(O)CCCC1n1c(=O)c(C(F)F)cc2cnc(NC3CCN(S(C)(=O)=O)CC3)nc21 (centres undefined) + C#Cc1c(F)ccc2cc(O)cc(-c3ncc4c(N5CC6CCC(C5)N6)nc(OCC56CCCN5CC(F)C6)nc4c3F)c12	92.5%
C[C@@H](NC(=O)c1ncnc(N)c1Cl)c1ncc(C(=O)Nc2cc(C(F)(F)F)c(Cl)cn2)s1 + C=CC(=O)N1CCN(c2nc(OCC3CCCN3C)nc3c(F)c(-c4nc(N)cc(C)c4C(F)(F)F)c(Cl)cc23)C(C)C1	119%
O=C(c1ccc(F)c(F)c1Nc1ccc(I)cc1F)N1CC(O)([C@@H]2CCCCN2)C1 + C#Cc1c(F)ccc2cc(O)cc(-c3ncc4c(N5CC6CCC(C5)N6)nc(OCC56CCCN5CC(F)C6)nc4c3F)c12	55.4%
CC(=O)OC12COC1CC(O)C1(C)C(=O)C(O)C3=C(C)C(OC(=O)C(O)C(NC(=O)OC(C)(C)C)c4ccccc4)CC(O)(C(OC(=O)c4ccccc4)C21)C3(C)C (centres undefined) + C=CC(=O)N1CCN(c2nc(OCC3CCCN3C)nc3c(F)c(-c4nc(N)cc(C)c4C(F)(F)F)c(Cl)cc23)C(C)C1	87.6%
NC1c2ccccc2OC12CCN(c1cnc3c(N4CCCc5ncccc54)n[nH]c3n1)CC2 (centres undefined) + C=CC(=O)N1CCN(c2nc(OCC3CCCN3C)nc3c(F)c(-c4nc(N)cc(C)c4C(F)(F)F)c(Cl)cc23)C(C)C1	70.3%
CCN1CCN(Cc2ccc(Nc3ncc(F)c(-c4cc(F)c5nc(C)n(C(C)C)c5c4)n3)nc2)CC1 + C#Cc1c(F)ccc2cc(O)cc(-c3ncc4c(N5CC6CCC(C5)N6)nc(OCC56CCCN5CC(F)C6)nc4c3F)c12	73.2%
CC(C)NCC(C(=O)N1CCN(c2ncnc3c2C(C)CC3O)CC1)c1ccc(Cl)cc1 (centres undefined) + C#Cc1c(F)ccc2cc(O)cc(-c3ncc4c(N5CC6CCC(C5)N6)nc(OCC56CCCN5CC(F)C6)nc4c3F)c12	95.5%

// query Enter recorded viability, T/C with 388556-164-R-J1-PDC complex spheroid viability for C=CC(=O)N1CCN(c2nc(OCC3CCCN3C)nc3c(F)c(-c4nc(N)cc(C)c4C(F)(F)F)c(Cl)cc23)C(C)C1 (centres undefined) + C#Cc1c(F)ccc2cc(O)cc(-c3ncc4c(N5CC6CCC(C5)N6)nc(OCC56CCCN5CC(F)C6)nc4c3F)c12 here.
// result 75.5%

// query Enter recorded viability, T/C with 388556-164-R-J1-PDC complex spheroid viability for CCN1CCN(Cc2ccc(Nc3ncc(F)c(-c4cc(F)c5nc(C)n(C(C)C)c5c4)n3)nc2)CC1 + C=CC(=O)N1CCN(c2nc(OCC3CCCN3C)nc3c(F)c(-c4nc(N)cc(C)c4C(F)(F)F)c(Cl)cc23)C(C)C1 here.
// result 100%
